pIC50: −log10 of the molar value.
Listing of pIC50 toward IRE1a (Homo sapiens), each taken from a published source.

Study these solved cases before continuing.
Compound | pIC50
CCc1cc(-c2cc(NC(=O)Cc3cccc(C(F)(F)F)c3)nn2C)cc2cnc(N[C@H]3CC[C@H](O)CC3)nc12 | < 7.00
COc1cc(O)c(C=O)c2oc(=O)c(CC(=O)NCCN(C)C)c(C)c12 | > 7.00

Prompt: Report pIC50 on IRE1a (Homo sapiens) for this entry: CCc1cc(-c2cc(NC(=O)C(CC)c3ccccc3)nn2C)cc2cnc(N[C@H]3CC[C@H](N)CC3)nc12 (stereo partly drawn)
Completion: ≥ 8.30

Prompt: Give pIC50; test system IRE1a (Homo sapiens); compound CCc1nc(NS(=O)(=O)c2ccccc2Cl)ccc1/C=C/c1cnc(NC2CCC(NC)CC2)nc1 (stereo not drawn)
Completion: ≥ 9.00

Prompt: Give pIC50 for this entry on IRE1a (Homo sapiens): O=Cc1c(O)ccc2cc(-c3ccc(C(=O)NC4CCNCC4)cc3)ccc12
Completion: > 7.00

Prompt: State recorded pIC50 with IRE1a (Homo sapiens), entry CN(Cc1ccncc1)C(=O)C1CCN(c2ccc3c(C=O)c(O)ccc3c2)C1 (stereo not drawn) , no comment.
Completion: > 6.00

* * *

Assay read-out IC50 on IRE1a (Homo sapiens, UniProt O75460); records merged from the literature.

See these solved cases before continuing.
Molecule | IC50
CNC1CCC(Nc2ncc(C=Cc3ccc(NS(=O)(=O)c4ccccc4Cl)nc3C)cn2)CC1 (stereo not shown) | ≤ 1 nM
CCc1cc(-c2ccc(NS(=O)(=O)c3ccccc3Cl)c(F)c2)cc2cnc(N[C@H]3CC4C[C@H](N)CC4C3)nc12 (stereo partly shown) | 5 to 50 nM
COc1cc(NS(=O)(=O)c2ccccc2Cl)ccc1/C=C/c1cnc(NC2CCC(N(C)C)CC2)nc1 (stereo not shown) | ≤ 1 nM
CCc1cc(-c2nnc(NS(=O)(=O)c3ccccc3Cl)cc2OC)cc2cnc(N[C@H]3CC[C@H](N)CC3)nc12 | ≤ 5 nM
Cc1nc(NS(=O)(=O)c2ccccc2Cl)ccc1CCc1cnc(NC2CCC(O)CC2)nc1 (stereo not shown) | 100 to 1000 nM
CN1CCN(C(=O)c2ccc(-c3ccc4c(C=O)c(O)ccc4c3)nc2)CC1 | < 1000 nM

Attention now turns to another entry.
Prompt: Give IC50 for N[C@H]1CC[C@H](Nc2ncc3cc(-c4cc(F)c(NS(=O)(=O)c5ccccc5Cl)cc4F)ccc3n2)CC1 tested on IRE1a (Homo sapiens, UniProt O75460).
Completion: ≤ 5 nM

* * *

Below are pIC50 values for UniProtKB O75460 collected from several publications.
pIC50: −log10 of the molar value.

Compound | Test Value
CC(C)c1nc(-c2ccc(NS(=O)(=O)Cc3ccccc3Cl)c(F)c2)c2c(N)ncc(C3=CCC(N(C)C)CC3)n12 (stereo not drawn) | 8.82
COc1cc(NS(=O)(=O)c2ccccc2Cl)ccc1CCc1cnc(NC2CCC(N)CC2)nc1 (stereo not drawn) | ≥ 9.00
O=Cc1c(O)ccc2cc(-c3ccc(C(=O)N4CCOCC4)cc3Cl)ccc12 | > 6.00
CCc1cc(-c2cc(NC(=O)Cc3cc(F)ccc3C(F)(F)F)nn2C)cc2cnc(N[C@H]3CC[C@H](N)CC3)nc12 | 7.30 to 8.30
NC12CCC(Nc3ncc4cc(-c5ccc(NS(=O)(=O)c6ccccc6Cl)c(F)c5)ccc4n3)(CC1)C2 | ≥ 8.30
COCCNC(=O)c1ccc(-c2ccc3c(C=O)c(O)ccc3c2)s1 | > 6.00
Cc1cc(N(C)S(=O)(=O)c2ccccc2Cl)ccc1-c1cc(O)c2nc(N[C@H]3CC[C@H](N)CC3)ncc2c1 | 7.00 to 7.30
Cc1nc(-c2ccc3c(C=O)c(O)ccc3c2)sc1C(=O)N1CCCC1 | > 7.00

Consider now this further compound.
Prompt: Using UniProtKB O75460 as the test system, report measured pIC50 of O=Cc1c(O)ccc2cc(N3CCC(NCc4ccccn4)CC3)ccc12 .
Completion: > 6.00
